molecular target: Voltage-gated L-type calcium channel (Homo sapiens, UniProt Q13936+Q13698+Q01668+O60840); assay: In vitro vasorelaxant activity (calcium channel blocking activity) was determined with potassium-depolarized rabbit thoracic aorta; format: functional, tissue-based
attribute measured: IC50 (nM)

Worked examples, 4 compounds total:
compound: CCOC(=O)C1=C(C)NC(SCC)=C(C(=O)OCC)C1c1cccc([N+](=O)[O-])c1 (centres undefined)
measurement unit: nM
IC50: 4
//
compound: CCOC(=O)N1C(=S)N=C(C)/C(=C(/O)OCC)C1c1ccccc1C(F)(F)F (centres undefined)
measurement unit: nM
IC50: 26
//
compound: CCOC(=O)C1=C(C)NC(OCC)=C(C(=O)OCC)C1c1cccc([N+](=O)[O-])c1 (centres undefined)
measurement unit: nM
IC50: 26
//
compound: CCOC(=O)N1C(=S)N=C(C)/C(=C(/O)OCC)C1c1cccc([N+](=O)[O-])c1 (centres undefined)
measurement unit: nM
IC50: 17

[P] CCOC(=O)C1=C(C)N=C(OC)NC1c1cccc([N+](=O)[O-])c1 (centres undefined)
[Q] CCO/C(O)=C1\C(C)=NC(=S)N(C(=O)N(C)C)C1c1cccc([N+](=O)[O-])c1 (centres undefined)
Hi there, can you help? I need to know whether P or Q has lower measured IC50. Selection: enter the item's label.
Q
